Molecular target: egg albumin (Gallus gallus)
Sequence (P01012 1-386): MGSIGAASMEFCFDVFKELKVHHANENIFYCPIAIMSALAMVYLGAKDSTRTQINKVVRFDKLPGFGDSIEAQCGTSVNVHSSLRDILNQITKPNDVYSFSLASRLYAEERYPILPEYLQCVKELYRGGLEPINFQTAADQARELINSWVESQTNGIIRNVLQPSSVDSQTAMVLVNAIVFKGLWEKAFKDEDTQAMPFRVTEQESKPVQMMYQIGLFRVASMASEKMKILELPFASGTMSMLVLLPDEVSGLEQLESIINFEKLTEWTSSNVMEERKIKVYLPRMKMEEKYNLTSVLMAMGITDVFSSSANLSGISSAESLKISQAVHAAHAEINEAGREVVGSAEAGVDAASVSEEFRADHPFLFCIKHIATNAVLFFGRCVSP
Quantity measured: IC50 (µM)

1. O[C@H]1CCN2Cc3ccccc3N=C12 :: 283

Value source: paper PMC10099809
